Kindly find below IC50 information for Protein deacetylase HDAC6 (Homo sapiens, UniProt Q9UBN7) taken from the literature.

Before answering, review these 5 worked examples.
Problem: Entry `COc1ccc(NCc2ccc(C(=O)Nc3ccccc3N)cc2)cc1OC` , system Protein deacetylase HDAC6 (Homo sapiens, UniProt Q9UBN7): what IC50 was measured?
Solution: > 50000 nM

Problem: Entry `O=C(NO)c1ccc2ccn(CCOc3ccccc3F)c2c1` , system Protein deacetylase HDAC6 (Homo sapiens, UniProt Q9UBN7): what IC50 was measured?
Solution: 1000 to 10000 nM

Problem: Entry `O=C(CCCCCCN(c1cnccn1)c1cnccn1)NO` , system Protein deacetylase HDAC6 (Homo sapiens, UniProt Q9UBN7): what IC50 was measured?
Solution: ≤ 100 nM

Problem: Entry CC(C)C1(c2ccn(Cc3ccc(C(=O)NO)cc3)c(=O)c2)CCCO1 (stereo not drawn) , system Protein deacetylase HDAC6 (Homo sapiens, UniProt Q9UBN7): what IC50 was measured?
Solution: ≤ 10 nM

Problem: Entry `Cc1oc(S(=O)(=O)N2CCCCC2)cc1C(=O)N1CCc2cc(C(=O)NO)sc2C1` , system Protein deacetylase HDAC6 (Homo sapiens, UniProt Q9UBN7): what IC50 was measured?
Solution: < 50 nM

---
Problem: Entry `Nc1cc(F)c(F)cc1C(=O)NCCCC[C@H](NC(=O)c1cncs1)c1ncc(-c2ccc3ccccc3c2)[nH]1` , system Protein deacetylase HDAC6 (Homo sapiens, UniProt Q9UBN7): what IC50 was measured?
Solution: ≥ 45000 nM

Problem: Entry `COc1ccc2cc(C(=O)NO)cnc2c1` , system Protein deacetylase HDAC6 (Homo sapiens, UniProt Q9UBN7): what IC50 was measured?
Solution: > 500 nM

Problem: Entry `CCc1nc2cc(F)c(/C=C/C(=O)NO)cc2c(=O)n1-c1ccccc1` , system Protein deacetylase HDAC6 (Homo sapiens, UniProt Q9UBN7): what IC50 was measured?
Solution: 33 nM

Problem: Entry `CC(C)(C)C(=O)N1CCc2ccc(C(=O)NO)cc2CC1` , system Protein deacetylase HDAC6 (Homo sapiens, UniProt Q9UBN7): what IC50 was measured?
Solution: 100 to 500 nM

Problem: Entry `O=C(CCCCCCN(c1cnccn1)c1ccc(C(F)(F)F)nn1)NO` , system Protein deacetylase HDAC6 (Homo sapiens, UniProt Q9UBN7): what IC50 was measured?
Solution: ≤ 100 nM

Problem: Entry `O=C(NO)c1cc2c(s1)CN(C(=O)c1cnn(-c3ccccc3)c1)CC2` , system Protein deacetylase HDAC6 (Homo sapiens, UniProt Q9UBN7): what IC50 was measured?
Solution: < 50 nM

Problem: Entry `Cc1cccc(C)c1-n1c(C)nc2cc(F)c(/C=C/C(=O)NO)cc2c1=O` , system Protein deacetylase HDAC6 (Homo sapiens, UniProt Q9UBN7): what IC50 was measured?
Solution: 12 nM

###

Kindly find below IC50 information for Protein deacetylase HDAC6 (Homo sapiens) taken from the literature.

Problem: Look up IC50: `CC(=O)N[C@H](CC(C)C)C(=O)N1CCc2cc(C(=O)NO)ccc2C1`
Solution: 100 to 500 nM

Problem: Look up IC50: `O=C(NO)c1ccc2ccn(CCOc3ccccc3)c2c1`
Solution: > 10000 nM

---
Problem: Look up IC50: CC(NC(=O)Nc1ccc(Cl)c(C(F)(F)F)c1)c1ccc(C(=O)NO)s1 (stereo not shown)
Solution: < 100 nM

Problem: Look up IC50: `O=C(NO)c1ccc2c(c1)CCN(C(=O)NC1CCCCC1)C2`
Solution: < 50 nM
